Consider the following compounds and their measured viability, T/C readings.
Tested on: 598228-144-R-J1-PDC complex spheroid viability;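 note: spheroids exposed to the agents for one week before reading; percent of vehicle DMSO control viability so 100% = untreated growth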
assay.info: Anticancer human tumor 598228-144-R-J1-PDC patient-derived serous endometrial adenocarcinoma cell line growth inhibition [GQUAD]
assay.setup: second compound 3.16 µM; first compound 0.000999 µM; hits give low values

{"compound": "Cc1[nH]c2ccccc2c1CCNCc1ccc(/C=C/C(=O)NO)cc1 + CN(C)c1ccc(Nc2c3ccc(NC(=O)CCN4CCCC4)cc3nc3cc(NC(=O)CCN4CCCC4)ccc23)cc1", "study.system": "598228-144-R-J1-PDC complex spheroid viability", "viability, T/C": "99.9%"}
{"compound": "Cn1ncnc1[C@H]1c2n[nH]c(=O)c3cc(F)cc(c23)N[C@@H]1c1ccc(F)cc1 + CN(C)c1ccc(Nc2c3ccc(NC(=O)CCN4CCCC4)cc3nc3cc(NC(=O)CCN4CCCC4)ccc23)cc1", "study.system": "598228-144-R-J1-PDC complex spheroid viability", "viability, T/C": "112%"}
{"compound": "Cc1[nH]c2ccccc2c1CCNCc1ccc(/C=C/C(=O)NO)cc1 + Cc1cnc(CNC(=O)c2c(=O)c3ccc(N4CCCN(C)CC4)nc3n3c2sc2ccccc23)cn1", "study.system": "598228-144-R-J1-PDC complex spheroid viability", "viability, T/C": "49.4%"}

Origin of values: PubChem BioAssay AID2060506
